target: BCRP (Homo sapiens (Human), UniProt Q9UNQ0); experiment: BCRP MDCKII permeability assay: efflux ratio; type: in vitro ADME; settings: dog
Sequence (Q9UNQ0 whole entry): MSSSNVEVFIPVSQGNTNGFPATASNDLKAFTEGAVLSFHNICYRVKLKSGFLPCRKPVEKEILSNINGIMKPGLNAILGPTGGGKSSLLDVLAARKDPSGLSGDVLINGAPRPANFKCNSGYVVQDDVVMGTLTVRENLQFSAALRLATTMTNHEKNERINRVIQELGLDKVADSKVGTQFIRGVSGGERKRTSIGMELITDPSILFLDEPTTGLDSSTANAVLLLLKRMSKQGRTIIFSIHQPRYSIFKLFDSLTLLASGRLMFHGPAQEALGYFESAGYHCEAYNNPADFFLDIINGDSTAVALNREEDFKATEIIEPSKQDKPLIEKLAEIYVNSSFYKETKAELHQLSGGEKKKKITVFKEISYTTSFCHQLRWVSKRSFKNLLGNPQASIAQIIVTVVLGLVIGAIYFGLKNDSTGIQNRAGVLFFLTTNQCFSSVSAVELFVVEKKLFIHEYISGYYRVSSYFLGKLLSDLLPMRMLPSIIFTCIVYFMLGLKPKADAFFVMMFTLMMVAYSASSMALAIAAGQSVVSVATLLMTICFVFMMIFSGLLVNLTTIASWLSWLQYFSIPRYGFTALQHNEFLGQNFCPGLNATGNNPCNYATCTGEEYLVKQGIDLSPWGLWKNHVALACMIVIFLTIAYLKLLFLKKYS
Structures can show the parent of a compound that is named as a salt.
Catalogue of efflux ratio at 2 h, 1 µM values
Give the value as a plain number.

Use these answered entries as a reference point.
Req: Fill in the blank: the reported efflux ratio at 2 h, 1 µM of Cn1cnc2ccc(Nc3c(F)ccc(NS(=O)(=O)N4CC(OC(F)F)C4)c3Cl)c(Cl)c2c1=O is ____.
Resp: 3.9

Req: Query (compound): Cc1c(Nc2c(F)ccc(NS(=O)(=O)N3CC(COC(F)F)C3)c2Cl)ccc2ncn(C)c(=O)c12 [Example 137, trifluoroacetate] ; field requested: efflux ratio at 2 h, 1 µM
Resp: 1.5

Req: If you can, please state the reported efflux ratio at 2 h, 1 µM value of O=c1c2c(F)c(Nc3c(F)ccc(NS(=O)(=O)N4CCCC4)c3Cl)ccc2ncn1CF [Example 42, trifluoroacetate] .
Resp: 2.4

Req: Data request, read-out efflux ratio at 2 h, 1 µM, for Cn1cnc2ccc(Nc3c(F)ccc(NS(=O)(=O)N4CC5(CCC5)C4)c3Cl)c(Cl)c2c1=O [Example 158, trifluoroacetate]
Resp: 1.1

Req: Which efflux ratio at 2 h, 1 µM value is on record for Cn1cnc2ccc(Nc3c(F)ccc(NS(=O)(=O)N4CC[C@@H](F)C4)c3Cl)c(Br)c2c1=O [Example 24, trifluoroacetate] ?
Resp: 2.6

Next:
Req: Record request: efflux ratio at 2 h, 1 µM value, item Cn1cnc2ccc(Oc3c(F)ccc(NS(=O)(=O)N4CCC(F)(F)C4)c3Cl)c(Cl)c2c1=O
Resp: 3.3

Req: Value lookup for efflux ratio at 2 h, 1 µM; key = CCN(C)S(=O)(=O)Nc1ccc(F)c(Oc2ccc3ncn(C)c(=O)c3c2C)c1Cl
Resp: 1

Req: Could you tell me which efflux ratio at 2 h, 1 µM is on file for [2H]C([2H])([2H])O[C@@H]1CCN(S(=O)(=O)Nc2ccc(F)c(Nc3ccc4ncn(C)c(=O)c4c3Cl)c2Cl)C1 [Example 53, trifluoroacetate] ?
Resp: 1.8

Req: Bench note: what efflux ratio at 2 h, 1 µM did CO[C@@H]1CCN(S(=O)(=O)Nc2ccc(F)c(Nc3ccc4ncn(C)c(=O)c4c3Br)c2Cl)C1 [Example 8, trifluoroacetate] show?
Resp: 1.3

Req: I am curious: what efflux ratio at 2 h, 1 µM value has been reported for Cn1cnc2ccc(Nc3c(F)c(F)cc(NS(=O)(=O)N4CCCC4)c3Cl)c(Cl)c2c1=O [Example 31, trifluoroacetate] ?
Resp: 1

Req: # query: efflux ratio at 2 h, 1 µM of entry Cc1c(Nc2c(F)ccc(NS(=O)(=O)N3CC4(CCC4)C3)c2Cl)ccc2ncn(C)c(=O)c12 [Example 157, trifluoroacetate]
Resp: 1.2

Req: Give its efflux ratio at 2 h, 1 µM value. Item: CN(C)S(=O)(=O)Nc1ccc(F)c(Nc2ccc3ncn(C)c(=O)c3c2Cl)c1Cl
Resp: 1.5

Req: Any idea what its efflux ratio at 2 h, 1 µM is? The compound is CCOC1CN(S(=O)(=O)Nc2ccc(F)c(Nc3ccc4ncn(C)c(=O)c4c3Cl)c2Cl)C1
Resp: 2.2
